Target: STAT6 (endogenous, HiBiT-tagged) in HeLa LgBiT clone 4.14 cells (Homo sapiens)
Construct: These cells express endogenous STAT6; host or cells: HeLa LgBiT clone 4.14
Sequence (P42226 1-847): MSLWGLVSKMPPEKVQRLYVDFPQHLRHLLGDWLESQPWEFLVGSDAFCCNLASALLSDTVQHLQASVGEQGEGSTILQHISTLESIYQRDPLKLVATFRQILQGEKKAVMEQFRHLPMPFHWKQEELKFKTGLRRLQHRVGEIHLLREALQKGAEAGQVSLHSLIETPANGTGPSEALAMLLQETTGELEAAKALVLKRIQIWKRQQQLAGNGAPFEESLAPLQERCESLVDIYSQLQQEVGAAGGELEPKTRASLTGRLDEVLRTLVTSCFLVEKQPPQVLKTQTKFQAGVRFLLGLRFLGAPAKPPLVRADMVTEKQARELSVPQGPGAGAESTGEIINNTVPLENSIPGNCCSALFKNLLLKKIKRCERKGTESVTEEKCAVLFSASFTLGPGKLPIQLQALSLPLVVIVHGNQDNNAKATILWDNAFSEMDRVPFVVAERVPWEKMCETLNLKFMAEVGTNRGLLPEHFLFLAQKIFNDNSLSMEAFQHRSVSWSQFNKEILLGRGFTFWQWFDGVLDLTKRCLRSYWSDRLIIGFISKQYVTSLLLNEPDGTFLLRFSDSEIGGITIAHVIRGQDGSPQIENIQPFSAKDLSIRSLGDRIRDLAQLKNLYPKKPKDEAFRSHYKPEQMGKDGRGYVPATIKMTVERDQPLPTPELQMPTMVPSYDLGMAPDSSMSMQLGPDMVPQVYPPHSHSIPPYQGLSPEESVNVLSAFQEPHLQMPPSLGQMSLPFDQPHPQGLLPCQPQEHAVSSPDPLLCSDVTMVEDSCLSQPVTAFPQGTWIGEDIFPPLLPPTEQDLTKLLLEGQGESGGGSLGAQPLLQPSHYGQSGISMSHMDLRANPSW
Experiment: STAT6 Degrader Assay (HiBiT based, HeLa LgBiT clone 4.14 cells, luminescence, DC50)
Format: cell-based
Details: Emax provided for test compounds with <80% Emax (and 2c15), geometric mean, read-out: STAT6 degradation Emax
reported.property: Emax

molecule	reported.property	reported
C[C@@H](c1cc2c(-c3ncc(N)cc3F)ccnc2n1C)N1CCC(c2ccc(C(=O)N3CCC(CN4CCN(c5ccc(NC6CCC(=O)NC6=O)cc5F)CC4)CC3)cc2)CC1 (stereo partly drawn) [Example 2c30]	Emax	30 to 40%
Cn1c(CN2CC=C(c3ccc(C(=O)N4CCn5nc(CN6CCC(c7ccc(NC8CCC(=O)NC8=O)cc7F)CC6)cc5C4)cn3)CC2)cc2c(-c3ccc(N)nn3)ccnc21 (stereo not drawn) [Example 2c38]	Emax	< 20%
Cn1c(CN2CCC(c3ccc(C(=O)N4CCC(CN5CCC(c6ccc(NC7CCC(=O)NC7=O)cc6F)CC5)CC4)cc3)CC2)cc2c(-c3ccc4[nH]ncc4c3)ccnc21 (stereo not drawn) [Example 2m1]	Emax	60 to 70%
Cn1c(CN2CCC(c3ccc(C(=O)N4CCn5c(CN6CCC(c7ccc(NC8CCC(=O)NC8=O)cc7F)CC6)nnc5C4)cc3)CC2)cc2c(-c3ccc(N)nc3)ccnc21 (stereo not drawn) [Example 2q1]	Emax	40 to 50%
COCc1nc2cc(-c3ccnc4c3cc(CN3CCC(c5ccc(C(=O)N6CCC(CN7CCN(c8ccc(NC9CCC(=O)NC9=O)c(F)c8)CC7)CC6)cc5)CC3)n4C)ccc2[nH]1 (stereo not drawn) [Example 2b3]	Emax	70 to 80%
CNc1ccc(-c2ccnc3c2cc([C@@H](C)N2CC=C(c4c(C)cc(C(=O)N5CCC(CCn6cc(-c7ccc(NC8CCC(=O)NC8=O)cc7)nn6)CC5)cc4F)CC2)n3C)cn1 (stereo partly drawn) [Example 2c57]	Emax	< 20%
COc1cc(N2CCN(CC3CCN(C(=O)c4ccc(C5CCN(Cc6cc7c(-c8ccc9[nH]ncc9c8)ccnc7n6C)CC5)cc4)CC3)CC2)c(F)cc1NC1CCC(=O)NC1=O (stereo not drawn) [Example 2i1]	Emax	40 to 50%
C[C@@H](c1cc2c(-c3ccc(NCCO)nc3)ccnc2n1C)N1CCC(c2ccc(C(=O)N3CCC(CN4CCN(c5ccc(NC6CCC(=O)NC6=O)cc5F)CC4)CC3)cc2)CC1 (stereo partly drawn) [Example 2c26]	Emax	60 to 70%
Cc1nc(N)ccc1-c1ccnc2c1cc(CN1CCC(c3ccc(C(=O)N4CCC(CN5CCN(c6ccc(NC7CCC(=O)NC7=O)cc6F)CC5)CC4)cc3)CC1)n2C (stereo not drawn) [Example 2c7]	Emax	30 to 40%
Cn1c(CN2CCC(c3ccc(C(=O)N4CCC(CN5CCN(c6ccnc(NC7CCC(=O)NC7=O)n6)CC5)CC4)cc3)CC2)cc2c(-c3ccc4[nH]ncc4c3)ccnc21 (stereo not drawn) [Example 2k3]	Emax	30 to 40%
Cn1c(CN2CCN(c3ccc(C(=O)N4CCC(CN5CCN(c6ccc(NC7CCC(=O)NC7=O)cc6F)CC5)CC4)cc3)CC2)cc2c(-c3ccc(N)nc3)ccnc21 (stereo not drawn) [Example 2c39]	Emax	< 20%
COCc1nc2cc(-c3ccnc4c3cc([C@H](C)N3CCC(c5ccc(C(=O)N6CCC(CN7CCN(c8ccc(NC9CCC(=O)NC9=O)c(F)n8)CC7)CC6)cc5)CC3)n4C)ccc2[nH]1 (stereo partly drawn) [Example 2n11]	Emax	70 to 80%
Cn1c(CN2CCC(c3ccc(C(=O)N4CCC(CN5CCN(c6ccc(NC7CCC(=O)NC7=O)c(F)n6)CC5)CC4)cc3)CC2)cc2c(-c3ccc(N)nc3)ccnc21 (stereo not drawn) [Example 2n4]	Emax	70 to 80%
Cc1cc(C(=O)N2CCC(CN3CCN(c4ccc(NC5CCC(=O)NC5=O)cc4F)CC3)CC2)cc(C)c1C1=CCN(Cc2cc3c(-c4ccc(N)nc4)ccnc3n2C)CC1 (stereo not drawn) [Example 2c15]	Emax	80 to 90%
C[C@@H](c1cc2c(-c3ccc(N)nc3)ccnc2n1C)N1CCC(c2ccc(C(=O)N3CCC(CN4CCN(c5ccc(NC6CCC(=O)NC6=O)cc5C#N)CC4)CC3)cc2)CC1 (stereo partly drawn) [Example 2i3]	Emax	30 to 40%
Cn1c(CN2CCC(c3ccc(C(=O)N4CCC(CN5CCC(n6ncc7cc(NC8CCC(=O)NC8=O)ccc76)CC5)CC4)cc3)CC2)cc2c(-c3ccc4[nH]ncc4c3)ccnc21 (stereo not drawn) [Example 2t4]	Emax	< 20%
Cn1c(CN2CCC(c3ccc(C(=O)N4CCn5nc(CN6CCC(c7ccc(NC8CCC(=O)NC8=O)cc7F)CC6)cc5C4)cc3)CC2)cc2c(-c3ccc(N)nc3)ccnc21 (stereo not drawn) [Example 2q4]	Emax	70 to 80%
Cn1c(CN2CCC(c3ccc(C(=O)N4CCC(CN5CCN(C(=O)c6ccc(NC7CCC(=O)NC7=O)cc6F)CC5)CC4)cc3)CC2)cc2c(-c3ccc4[nH]ncc4c3)ccnc21 (stereo not drawn) [Example 2e1]	Emax	< 20%
COCc1nc2cc(-c3ccnc4c3cc(CN3CCC(c5ccc(C(=O)N6CCC(CN7CCN(c8ccc(NC9CCC(=O)NC9=O)cc8F)CC7)CC6)cc5)CC3)n4C)ccc2[nH]1 (stereo not drawn) [Example 2c4]	Emax	70 to 80%
Cn1c(CN2CCC(c3ccc(C(=O)N4CCC(CN5CCN(Cc6ccc(NC7CCC(=O)NC7=O)cc6F)CC5)CC4)cc3)CC2)cc2c(-c3ccc(N)nc3)ccnc21 (stereo not drawn) [Example 2s2]	Emax	40 to 50%
CNc1ccc(-c2ccnc3c2cc([C@H](C)N2CCC(c4ccc(C(=O)N5CCC(CN6CCN(c7ncc(NC8CCC(=O)NC8=O)cc7F)CC6)CC5)cc4)CC2)n3C)cn1 (stereo partly drawn) [Example 2n13]	Emax	79.3%

====

Molecular target: STAT6 (endogenous, HiBiT-tagged) in HeLa LgBiT clone 4.14 cells (Homo sapiens, UniProt P42226)
Construct: These cells express endogenous STAT6; host or cells: HeLa LgBiT clone 4.14
Assay: STAT6 Degrader Assay (HiBiT based, HeLa LgBiT clone 4.14 cells, luminescence, DC50)
Format: cell-based
Settings: DC50 provided for test compounds with >80% Emax, geometric mean, read-out: STAT6 degradation DC50
Response field class: string, computed from recorded DC50 by ranges bottom = under 5 nM, middle = from 5 nM up to 10 nM, top = 10 nM and over

compound	class.assignment
CNc1ccc(-c2ccnc3c2cc([C@H](C)N2CCC(c4ccc(C(=O)N5CCC(CN6CCN(c7ccc(NC8CCC(=O)NC8=O)c(F)n7)CC6)CC5)cc4)CC2)n3C)cn1 (stereo partly shown)	top
C[C@@H](c1cc2c(-c3ccc(N)nc3)ccnc2n1C)N1CCC(c2ccc(C(=O)N3CCn4nc(CN5CCC(c6ncc(NC7CCC(=O)NC7=O)cc6F)CC5)cc4C3)cc2)CC1 (stereo partly shown)	middle
Cn1c(CN2CCC(c3ccc(C(=O)N4CCC(CN5CCC(N6CCC(c7ccc(NC8CCC(=O)NC8=O)cc7F)CC6)C(F)(F)C5)CC4)cc3)CC2)cc2c(-c3ccc4[nH]ncc4c3)ccnc21 (stereo not shown)	top
CO[C@@H](C)c1nc2cc(-c3ccnc4c3cc([C@H](C)N3CCC(c5ccc(C(=O)N6CCC(CN7CCN(c8ccc(NC9CCC(=O)NC9=O)cc8F)CC7)CC6)cc5)CC3)n4C)ccc2[nH]1 (stereo partly shown)	bottom
CNc1ccc(-c2ccnc3c2cc([C@H](C)N2CC=C(c4c(C)cc(C(=O)N5CCC(CN6CCN(c7ccc(NC8CCC(=O)NC8=O)c(OC)c7)CC6)CC5)cc4F)CC2)n3C)cn1 (stereo partly shown)	top
C[C@@H](c1cc2c(-c3ccc(N)nc3)ccnc2n1C)N1CCC(c2ccc(C(=O)N3CCC(F)(CN4CCN(c5ccc(NC6CCC(=O)NC6=O)cc5F)CC4)CC3)cc2)CC1 (stereo partly shown)	middle
COCc1nc2cc(-c3ccnc4c3cc([C@H](C)N3CCC(c5ccc(C(=O)N6CCC(CN7CCN(c8ncc(NC9CCC(=O)NC9=O)cc8F)C[C@H]7C)CC6)cc5)CC3)n4C)ccc2[nH]1 (stereo partly shown)	middle
COC(C)c1nc2cc(-c3ccnc4c3cc([C@H](C)N3CCC(c5ccc(C(=O)N6CCC(CN7CCN(c8ccc(NC9CCC(=O)NC9=O)cc8F)CC7)CC6)cc5)CC3)n4C)ccc2[nH]1 (stereo in doubt)	bottom
COc1cc(C2CCN(Cc3cc4n(n3)CCN(C(=O)c3ccc(C5CCN([C@@H](C)c6cc7c(-c8ccc(N)nc8)ccnc7n6C)CC5)cc3)C4)CC2)ccc1NC1CCC(=O)NC1=O (stereo partly shown)	bottom
CNc1ccc(-c2ccnc3c2cc([C@H](C)N2CCC(c4ccc(C(=O)N5CCn6nc(CN7CCC(c8ccc(NC9CCC(=O)NC9=O)cc8F)CC7)cc6C5)cc4)CC2)n3C)cn1 (mixture of isomers)	bottom

Where these numbers come from: patent US20260014147A1
